Target: TRPV1 (Rattus norvegicus (Rat), UniProt O35433)
Sequence (O35433 whole entry): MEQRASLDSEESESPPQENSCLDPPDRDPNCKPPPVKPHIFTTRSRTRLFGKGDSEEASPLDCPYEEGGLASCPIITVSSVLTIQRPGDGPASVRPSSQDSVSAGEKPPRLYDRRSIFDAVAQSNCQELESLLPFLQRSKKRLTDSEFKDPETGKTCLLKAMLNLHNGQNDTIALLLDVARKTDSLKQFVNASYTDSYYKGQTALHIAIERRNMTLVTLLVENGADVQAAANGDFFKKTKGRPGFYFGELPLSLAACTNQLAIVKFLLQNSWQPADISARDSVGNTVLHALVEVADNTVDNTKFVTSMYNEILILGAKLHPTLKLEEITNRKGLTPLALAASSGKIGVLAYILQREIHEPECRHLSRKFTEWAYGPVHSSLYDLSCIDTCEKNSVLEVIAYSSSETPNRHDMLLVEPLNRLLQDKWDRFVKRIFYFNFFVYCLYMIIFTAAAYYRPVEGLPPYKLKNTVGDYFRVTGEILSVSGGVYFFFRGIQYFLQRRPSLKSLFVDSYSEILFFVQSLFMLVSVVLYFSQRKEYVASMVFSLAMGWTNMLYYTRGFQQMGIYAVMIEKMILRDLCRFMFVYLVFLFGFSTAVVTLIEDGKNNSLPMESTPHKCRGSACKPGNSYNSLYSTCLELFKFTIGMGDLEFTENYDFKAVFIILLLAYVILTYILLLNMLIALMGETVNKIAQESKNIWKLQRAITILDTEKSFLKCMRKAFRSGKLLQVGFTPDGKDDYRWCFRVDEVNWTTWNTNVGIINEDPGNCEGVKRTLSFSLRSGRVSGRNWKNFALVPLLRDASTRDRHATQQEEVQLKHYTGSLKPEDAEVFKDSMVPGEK
Assay: Ca2+ fluorescence measurements in cultured rat dorsal root ganglia neurons (capsaicin-induced calcium uptake)
Format: cell-based
Conditions: Table 1; against capsaicin-evoked [Ca2+]i mobilization; rat DRG neurons; read-out: IC50
Let's look at some compounds and their measured IC50.
Number only, in nM; omit the unit.

Use the examples below as a reference point.
- COMPOUND: "COc1nc(C(F)(F)F)ccc1CNC(=O)Nc1cccc2c1OCC(=O)N2 [Example 82]"
  IC50 (nM): 54
- COMPOUND: "O=C(NCc1ccc(C(F)(F)F)nc1N1CCCC1)Nc1cccc2[nH]c(=O)[nH]c12 [Example 39]"
  IC50 (nM): 9.5

Prompt line: Record request: IC50 value, item O=C(NCc1ccc(C(F)(F)F)cc1N1CCCCC1)Nc1cccc2[nH]c(=O)[nH]c12 [Example 6]
Response line: 0.51

Prompt line: Record request: IC50 value, item O=C(NCc1ccc(C(F)(F)F)cc1N1CCCCC1)Nc1cccc2oc(=O)[nH]c12 [Example 31]
Response line: 1.9

Prompt line: Record request: IC50 value, item O=C1COc2c(cccc2NC(=O)NCc2ccc(C(F)(F)F)cc2N2CCCCC2)N1 [Example 48]
Response line: 0.13

Prompt line: Record request: IC50 value, item O=C(NCc1ccc(C(F)(F)F)cc1N1CCCC1)Nc1cccc2[nH]c(=O)[nH]c12 [Example 5]
Response line: 1

Prompt line: Record request: IC50 value, item CN(C)c1nc(C(F)(F)F)ccc1CNC(=O)Nc1cccc2[nH]c(=O)[nH]c12 [Example 69]
Response line: 92

Prompt line: Record request: IC50 value, item CN(C)CCOc1nc(C(F)(F)F)ccc1CNC(=O)Nc1cccc2[nH]c(=O)[nH]c12 [Example 72]
Response line: 6
